Reference source for all entries: paper PMC4376002

- target_desc: Mip of L. pneumophila (Legionella pneumophila subsp. pneumophila)
- Sequence (Q5ZXE0 21-233 limits assumed): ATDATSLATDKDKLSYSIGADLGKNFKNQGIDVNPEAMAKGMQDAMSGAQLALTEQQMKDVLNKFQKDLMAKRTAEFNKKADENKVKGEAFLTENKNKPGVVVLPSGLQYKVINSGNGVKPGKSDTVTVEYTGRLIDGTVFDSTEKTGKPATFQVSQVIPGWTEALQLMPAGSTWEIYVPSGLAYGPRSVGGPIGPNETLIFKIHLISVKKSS
- measurement_description: biochemical
- Format: biochemical
# maps each entry to its IC50
The number alone won't do; follow it with the unit.

Below are worked cases with known answers.
CCC12CC3CC(C1)CC(NC(=O)CN1C(=O)CC(C[C@@H](O)C4C[C@@H](C)C[C@H](C)C4=O)CC1=O)(C3)C2 (stereo partly drawn) [MT_30.51]    5.6 µM
CC1CC(C)C(=O)C(C(O)CC2CC(=O)N(CC(=O)NC34CC5(C)CC(C)(CC(O)(C5)C3)C4)C(=O)C2)C1 (stereo not drawn) [MT_30.79]    4.9 µM

// sample C[C@@H]1CC([C@H](O)CC2CC(=O)N(CC(=O)NC34CC5CC(CC(C5)C3)C4)C(=O)C2)[C@H](O)[C@@H](C)C1 (stereo partly drawn) [MT_30.92] , its IC50 was 12.6 µM

---

- System: L. pneumophila Corby (WT)
- measurement_description: microbe, parasite or virus in culture
- Type: cell-based, Legionella pneumophila
- run_parameters: Legionella pneumophila, 48 h, read-out: WT MIC, growth in YEB, 10 to 100 μM, 37°C, 2 days
# maps each entry to its MIC

Below are worked cases with known answers.
C[C@@H]1CC([C@H](O)CC2CC(=O)N(CC(=O)NC34CC5CC(CC(C5)C3)C4)C(=O)C2)[C@@H](O)[C@@H](C)C1 (stereo partly drawn) [MT_30.93]    ≥ 30 µM
C[C@@H]1CC([C@H](O)CC2CC(=O)N(CC(=O)N(C)C(C)(C)C)C(=O)C2)C(=O)[C@@H](C)C1 (stereo partly drawn) [MT_30.9]    30 µM
C[C@@H]1CC([C@H](O)CC2CC(=O)N(CC(=O)NC34CC5CC(CC(C5)C3)C4)C(=O)C2)[C@H](O)[C@@H](C)C1 (stereo partly drawn) [MT_30.92]    ≥ 30 µM
CCC12CC3CC(C1)CC(NC(=O)CN1C(=O)CC(C[C@@H](O)C4C[C@@H](C)C[C@H](C)C4=O)CC1=O)(C3)C2 (stereo partly drawn) [MT_30.51]    ≥ 30 µM
CC1CC(C)C(=O)C(C(O)CC2CC(=O)N(CC(=O)NC34CC5CC(C)(CC(C)(C5)C3)C4)C(=O)C2)C1 (stereo not drawn) [MT_30.32]    ≥ 30 µM

Query molecule follows.
GET /values?item= CO[C@H]1C[C@@H]2CC[C@@H](C)[C@@](O)(O2)C(=O)C(=O)N2CCCC[C@H]2C(=O)O[C@H]([C@H](C)C[C@@H]2CC[C@@H](O)[C@H](OC)C2)CC(=O)[C@H](C)/C=C(\C)[C@@H](O)[C@@H](OC)C(=O)[C@H](C)C[C@H](C)/C=C/C=C/C=C/1C [Rapamycin, reference compound] &system= L. pneumophila Corby (WT) returns MIC: ≥ 40 µM

---

Let's go through some IC50 measurements on human FKBP12 (Homo sapiens, UniProt P62942) together.
Sequence (P62942 whole entry): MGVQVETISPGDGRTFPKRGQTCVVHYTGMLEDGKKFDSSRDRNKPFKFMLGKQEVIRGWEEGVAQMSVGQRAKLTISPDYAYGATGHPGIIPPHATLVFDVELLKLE

Below are worked cases with known answers.
C[C@@H]1CC([C@H](O)CC2CC(=O)N(CC(=O)NC34CC5CC(CC(C5)C3)C4)C(=O)C2)[C@H](O)[C@@H](C)C1 (stereo partly drawn) [MT_30.92]    1 µM
C[C@@H]1CC([C@H](O)CC2CC(=O)N(CC(=O)NC34CC5CC(CC(O)(C5)C3)C4)C(=O)C2)C(=O)[C@@H](C)C1 (stereo partly drawn) [MT_30.38]    1.2 µM

Query compound follows.
GET /values?item= C[C@@H]1CC([C@H](O)CC2CC(=O)N(CC(=O)N(C)C(C)(C)C)C(=O)C2)C(=O)[C@@H](C)C1 (stereo partly drawn) [MT_30.9] &system= human FKBP12 (Homo sapiens, UniProt P62942) returns IC50: 36.1 µM

---

- target_desc: human FKBP12 (Homo sapiens, UniProt P62942)
measured_property: pIC50
pIC50 is defined as minus the log10 of a concentration measured in mol/L.

Below are worked cases with known answers.
C[C@@H]1CC([C@H](O)CC2CC(=O)N(CC(=O)NC34CC5CC(CC(C5)C3)C4)C(=O)C2)C(=O)[C@@H](C)C1 (some centres unmarked)    6.40
CC1CC(C)C(=O)C(C(O)CC2CC(=O)N(CC(=O)NC34CC5CC(C)(CC(C)(C5)C3)C4)C(=O)C2)C1 (centres unmarked)    6.74
CCC12CC3CC(C1)CC(NC(=O)CN1C(=O)CC(C[C@@H](O)C4C[C@@H](C)C[C@H](C)C4=O)CC1=O)(C3)C2 (some centres unmarked)    6.72
C[C@@H]1CC([C@H](O)CC2CC(=O)N(CC(=O)NC34CC5CC(CC(C5)C3)C4)C(=O)C2)[C@@H](O)[C@@H](C)C1 (some centres unmarked)    6.05

GET /values?item= CC1CC(C)C(=O)C(C(O)CC2CC(=O)N(CC(=O)NC34CC5(C)CC(C)(CC(O)(C5)C3)C4)C(=O)C2)C1 (centres unmarked) &system= human FKBP12 (Homo sapiens, UniProt P62942) returns pIC50: 6.66
